# TESTED SYSTEM: FTM-NN protein (membrane anchorless form of the Long fusion protein, 70 kDa) (human respiratory syncytial virus, …, UniProt P12568 26-524)
# MEASUREMENT PROTOCOL: binding ELISA, periplasmic extract on immobilised antigen
RECORDED METRIC: Binding RSV-A, Fold blanc (fold over blank)
Note: unit fold over blank is implicit; provide only the numeric part.

Worked examples follow.
PMP1E5 (VHH) VHH: EVQLVESGGGLVQAGGSLRLSCEASGRTFSPIAMGWFRQAPGKEREFVAVVTRWSGARTVYADSVKGRFTISRDNAENTVYLQMNSLKPEDTAVYTCAADSTNRNSGAIYYTWAYDYWGQGTQVTVSS; 3.4
PMP19C4 (VHH) VHH: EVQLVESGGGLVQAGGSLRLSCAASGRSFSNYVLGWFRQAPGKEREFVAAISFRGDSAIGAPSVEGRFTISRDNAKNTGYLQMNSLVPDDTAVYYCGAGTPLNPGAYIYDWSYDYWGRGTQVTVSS; 2.5
PMP20C1 (VHH) VHH: EVQLVESGGGLVQAGGSLRLSCAASGRTFSSFAMGWFRQAPGKEREFVAAISWSGGSTYYADSVKGRFTISGDNAKNTMYLQMNSLKPEDTAVYYCAADSEILNSGAYYYPWAYVYWGQGTQVTVSS; 2.7
PMP1G8 (VHH) VHH: EVQLVESGGGSVQAGGSLRLSCAASGGSFNRFGMGWFRRAPGKERDFVAAINLSGDTTYYVDSVQGRFTISRDNANNIMYLQMNLLKPEDTADYYCAADPDPITAWKQSGAGMDYWGKGTQVTVSS; 3.7
PMP20B2 (VHH) VHH: EVQLVESGGGLVQAGGSLRLSCEASGRTFSSYDMGWFRQAPGKEREFVAAVTRWSGARGVYADSVKGRFTISRDNAENTVHLQMNSLKPEDTAVYTCAADSTNRNSGAVYYTWAYDYWGQGTQVTVSS; 3

In: Answer with reported Binding RSV-A, Fold blanc of PMP1G3 (VHH) VHH: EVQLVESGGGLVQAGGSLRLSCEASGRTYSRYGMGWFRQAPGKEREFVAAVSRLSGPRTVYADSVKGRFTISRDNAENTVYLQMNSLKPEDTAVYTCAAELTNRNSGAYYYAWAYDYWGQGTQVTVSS
Out: 3.4

In: Answer with reported Binding RSV-A, Fold blanc of PMP7B2 (VHH) VHH: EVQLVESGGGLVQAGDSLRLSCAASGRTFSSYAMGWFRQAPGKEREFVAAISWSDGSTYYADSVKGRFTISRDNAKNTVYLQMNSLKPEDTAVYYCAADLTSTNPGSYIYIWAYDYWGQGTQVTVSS
Out: 4.7

In: Answer with reported Binding RSV-A, Fold blanc of PMP1A6 (VHH) VHH: EVQLVESGGGLVQAGGSLRLSCAASGRTFSSYAMGWFRQAPGKEREFVAAIWWSGGSTYYADSVKGRFTMSRDNAKNTVYLEMNNLKPEDTAVYYCAADTDSSNSGSYLYTWAYDYWGQGTQVTVSS
Out: 4.2
